All values here come from the supplement of paper PMC6555819.

# Tested on: RARb homodimer (NR concentration 270 nM)
# experiment: PBM binding z-score (relative to random genomic background probes); higher = stronger binding; sequences stand for … in GC…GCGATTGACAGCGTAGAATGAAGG
attribute measured: PBM binding z-score
One number for each entry.

input sequence: TAGCCTAGGTCAGATCGGGCCAGTATACGCTATA
PBM binding z-score: 2.17

Look at each sequence and report its PBM binding z-score.
1. ATCTCTAGGTAACCAAGTTCAGTGATTGCCGAAC
2. TCTTGTAGATCACCAGGTTAAGAAAGCTGGCCAA
3. TAGCCTAGGTCATTCGGGCCAGTATAGTGTCGGC
4. ACAGACAGGTGAGTGAGGGTAACTCAGCTGGACG
5. ATCTCTAGGAAAAAGTTCAGTGAATCCCGAGGAT

[1.45, 0.501, 3.25, 0.68, 1.74]

---

# Tested on: THRa homodimer (NR concentration 90 nM)
# experiment: PBM binding z-score (relative to random genomic background probes); higher = stronger binding; sequences stand for … in GC…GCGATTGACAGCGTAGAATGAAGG
Consider the following partition of reported PBM binding z-score into named classes: group 1 = under -0.001, group 2 = from -0.001 up to 1, group 3 = 1 and over

Please review the following examples before continuing.
input sequence: ACTAGTTGGTCAGCTAAGGTCACACACAATTCGG
label class: group 3
//
input sequence: TTTTGTAGATCAAGCAGGTTAAGAAAGCCTGAGT
label class: group 1

Assign a bin to TCTTGTAGATCAGCAGGTTAAGAATGCTGGCCAA group 1

Assign a bin to TGAATGAGGTTATTAGATCAGGGAACGTTGCAAA group 2

Assign a bin to CCTACTGGGCCATAGGTCATTGATTCCAATGCTC group 2

---

# Tested on: PPARg:RXRa 270nM:90nM, anti-RXR (NR concentration 270 nM, RXRa partner concentration 90 nM)
# experiment: PBM binding z-score (relative to random genomic background probes); higher = stronger binding; sequences stand for … in GC…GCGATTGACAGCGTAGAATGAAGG
Please respond with reported PBM binding z-score for every item in the list.

Solved cases (5 shown):
input sequence: CCGATTAGTTGACCATAAGGGCAACCGAAGCTCG
PBM binding z-score: 0.312
--
input sequence: CCGAGTAGGTGATGGGGCATTCAGGCAACGGTGA
PBM binding z-score: 4.41
--
input sequence: CCTACTGGGCCACGAAAGGTCACTGATTCAGTGA
PBM binding z-score: 4.98
--
input sequence: TCATATAGGTAATACAGGTGATAGTCGGCATCTA
PBM binding z-score: 2.3
--
input sequence: ATCGTAAGGTCGAGGTGAGTATAGAGAAAGGGAA
PBM binding z-score: 1.72

Look at each sequence and report its PBM binding z-score.
1. CCTACCGGGCCATTCAGAGGTCATTGATCATATG
2. AAGACAGGGTCATCGTAGGCCAGAGTACGCACAG
3. CATAAAGGGTCAGCTAGGCCAGAGTAGGGACGGC
4. CAGACTGGGGCAAAGGTTACCATACTCAGTACGA

1: 2.26; 2: 5.77; 3: 3.83; 4: 8.6

Look at each sequence and report its PBM binding z-score.
1. TTACCAAGGTGAAAGGTCGTTTATGCACGCCTTG
2. TCTTGTAGATCAAGAGGAGGTTAAGAAAGATCGA
3. TCGAGTAGGTTAGCGGCATTCAGAATGGCGTCGA
4. CGAACTAGGTCTTCCAGGACAGTGAATACATTGA
5. CTCGAAACGTCGTGCTCAGGTGAGTATACCAAAC
6. CCTACTGGGCCAGAAAGGTCATTGATGCCGATAA

7.73
1.24
0.409
0.622
-0.781
3.87

Look at each sequence and report its PBM binding z-score.
1. GGAACCAGGGCATTCGAGTTGATAGCATGGCGAT
2. CGTCCAAGATCAAGGTCAGTGAAAGAGACTCGAA

1: 0.862; 2: 1.19

Look at each sequence and report its PBM binding z-score.
1. TGAATGAGGTTAAAGATCAGGGATCGTGGCGTCG
2. GCTGCTAGGTCAGCTTGGTCAGCTAACGGGTACG
3. TCATATAGGTAATACAGGTGAAAGTGGGCATCTA
4. CCGACTGGGGCAGAAAGGTTACCCTACCATCCGG
5. CCTACTGGCCCATCAGGTCATTGATATCAACGTT
6. TGTCAAAGTTCAATGGTAACGTAAGTATCCACAC
7. GCGACTGGGGCAAAGCAGTTTACCATAAGGTTGG

[6.39, 0.718, 3.18, 2.33, 1.07, 6.53, 1.31]

Look at each sequence and report its PBM binding z-score.
1. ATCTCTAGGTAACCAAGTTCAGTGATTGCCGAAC
2. AGAATGAGATTATTAAGATCAGGGAATTGCGGTC

1: 0.803; 2: -0.292

---

Please respond with reported PBM binding z-score for every item in the list.
# Test system: RARg homodimer (NR concentration 270 nM)
# experiment: PBM binding z-score (relative to random genomic background probes); higher = stronger binding; sequences stand for … in GC…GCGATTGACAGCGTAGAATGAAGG

Solved cases (2 shown):
input sequence: GATACAGGGTCAGCTAGACGCCAGAGTATGGAAA
PBM binding z-score: 4.12
//
input sequence: TCTTGTAGATAAAGCAGGTTAAGAAAGCCTGAGT
PBM binding z-score: 0.0703

Look at each sequence and report its PBM binding z-score.
1. CGAACTAGGTCAAAGACAGTGAATCTCCGCACGC
2. AGTCAAAGTTAATCTAGGTAACGTAAGATATGCT
3. ACTTACGTGTCAACGAGGTTATAGCACGCGTATA
4. CTCGAAAGGTCGGTTGAGGTGAGCATACGGATAA

3.88
0.434
1.18
2.99

---

# System: THRa homodimer (NR concentration 90 nM)
# experiment: PBM binding z-score (relative to random genomic background probes); higher = stronger binding; sequences stand for … in GC…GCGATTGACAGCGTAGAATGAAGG
attribute measured: PBM binding z-score

Solved cases (5 shown):
input sequence: ACAGACAGGTGATGAAGGTAATTCAGGCTATCAT
PBM binding z-score: 0.165
//
input sequence: GCAGACAGGTGAACCGCAGGTAACTCAGGGTGGC
PBM binding z-score: -0.376
//
input sequence: CAAACTAGGTGAAGGTCAAAGTCGGTTTGTGCCA
PBM binding z-score: 0.696
//
input sequence: CTCGATAGGTCGGTTGAGGTGAGTATACGGATAA
PBM binding z-score: 1.19
//
input sequence: CCTAGTTGGTCAGGAGGTCATACACCGGATATGA
PBM binding z-score: 1.8

Specify reported PBM binding z-score for the sequence shown: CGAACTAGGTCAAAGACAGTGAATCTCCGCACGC 0.814

---

# Test system: PPARg:RXRa (NR concentration 180 nM, RXRa partner concentration 90 nM)
# experiment: PBM binding z-score (relative to random genomic background probes); higher = stronger binding; sequences stand for … in GC…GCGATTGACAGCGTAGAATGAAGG
Consider the following partition of reported PBM binding z-score into named classes: lo (below 0.6), med (0.6 to below 2), hi (2 or more)

input sequence: ACTAGTTGGTCAGCTGAGGCCACACACAATTCGG
label class: med

Assign a bin to AGAATGAAGTTAAGATCAGGGAAACAGAATACAT med

---

Please respond with reported PBM binding z-score for every item in the list.
# Test system: PPARg DBDmut:RXRa IVT, anti-PPARg (DBD mutation: PPARg1 K132A/R137A, NR concentration 270 nM, RXRa partner concentration 90 nM)
# experiment: PBM binding z-score (relative to random genomic background probes); higher = stronger binding; sequences stand for … in GC…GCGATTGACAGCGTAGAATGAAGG
Give bare numbers.

Solved cases (5 shown):
input sequence: CTCGAAAGGGCGGTTGAGGTGAGTATACGGATAA
assay value: 0.116
--
input sequence: GCTGCTAGGACAACTGATGGTCAGCTAAAGCTCG
assay value: -1.55
--
input sequence: ACTTGCGGGTCAACGAGGTTATAGCACGCGTATA
assay value: 1.36
--
input sequence: TCTTGTAGATCAAGCAGGGTAAGAAAGCCTGAGT
assay value: -0.108
--
input sequence: AGAATGAGGTTATTAAGATAAGGGAATTGCGGTC
assay value: 1.03

Look at each sequence and report its PBM binding z-score.
1. ACTAGCAGGCCAAGTTTGGGACACTCAAACAAAG
2. CGTACTGGGCCAAAGGTCATTGATTCCAATGCTC
3. TGGCCTAGGTCAGATCGGGCCAGTATACGCTATA
4. GCGACTGGGGCAAAGCAGGCTACCATAAGGTTGG
5. TCTTGTAGATCAAAGGTTTAGAAAGCCGAAGCCT
6. CGAGCTAGGTCAGAACAGGACAGTGAAGGATGAT
7. CCTACTGGGCCCAAGGTCATTGATTCCAATGCTC

1. -0.681
2. 0.296
3. -1.16
4. -0.239
5. 0.53
6. -1.14
7. -0.816
